These measurements were taken from the supplement of paper PMC8728848.

# Target Under Test: Neu5Ac(a2-3)Gal(b1-4)[Fuc(a1-3)]GlcNAc(b1-3)GalNAc
# Protocol Text: glycan array binding signal (z-score within array); higher = stronger binding
# Measurement Setup: glycan notation: IUPAC condensed, linker removed
The sample as a whole holds a higher share of the strongest signals than the screen did.

Binder: CLEC-1 (Homo sapiens), Q9NZH3 (protein) MQAKYSSTRDMLDDDGDTTMSLHSQASATTRHPEPRRTEHRAPSSTWRPVALTLLTLCLVLLIGLAAWGLLFFQYYQLSNTGQDTISQMEERLGNTSQELQSLQVQNIKLAGSLQHVAEKLCRELYNKAGAHRCSPCTEQWKWHGDNCYQFYKDSKSWEDCKYFCLSENSTMLKINKQEDLEFAASQSYSEFFYSYWTGLLRPDSGKAWLWMDGTPFTSELFHIIIDVTSPRSRDCVAILNGMIFSKDCKELKRCVCERRAGMVKPESLHVPPETLGEGD
glycan array binding signal (z-score): 2.82

Binder: HFR-3 (Triticum aestivum) (protein) MKGLLLCALALAFAAVTTHAQLQSCPTRCGKQADGMECPNNLCCSKDGYCGLGVDYCSAGAGCQSGACYDNKICGAQANGTLCRNNHCCSSGGRCGYGREYCSNGCQGGPCWADLKCGHLDNGKLCPNNLCCSQYGYCGLGPEFCGTGCQNGACSTDKPCGNKANGAPCTNNYCCSQYGSCGLGKDYCGTGCQNGACN
glycan array binding signal (z-score): -0.052
